Reported growth inhibition values for the following compounds.
Test system: Plasmodium falciparum NF54
PROTOCOL DESCRIPTION: growth inhibition relative to untreated control; higher = more inhibition
EXPERIMENTAL CONTEXT: 1 µM; MM + chorismate end-products (CM screening medium); 72 h
Field: numeric (%). Do not append units.

Past entries and their recorded results:
>>> reported_result("N=C(N)Nc1ccc(-c2ccc(-c3ccc(N=C(N)N)c(Cl)c3)o2)cc1Cl")
73.6
>>> reported_result("COc1ccc(-c2cc(NC(=O)c3ccc(F)cc3Cl)ccc2OC)cc1")
8.71
>>> reported_result("COc1cccc(OC)c1C(=O)Nc1ccc(Cl)c(-c2nc3ccccc3s2)c1")
20.8
>>> reported_result("CS(=O)(=O)c1cccc(-c2cnc3[nH]cc(-c4ccc(CCC(=O)O)cc4)c3c2)c1")
79
>>> reported_result("NCC(c1cccs1)S(=O)(=O)c1ccccc1 (centres undefined)")
36.2
>>> reported_result("CC(C)(C)c1cc(C(=O)Nc2cccnc2)cc(C(=O)Nc2cccnc2)c1")
88.9

Query compound follows.
Consider the compound Cc1cc2ccccc2n1CC(=O)N1CC(C(=O)N2CCCCC2)Oc2ccccc21 (centres undefined) . State its measured growth inhibition.
97.2
